system.tested: IKZF2 (Helios) (Homo sapiens, UniProt Q96SW2+Q9UKS7)
Sequence (Q9UKS7 whole entry): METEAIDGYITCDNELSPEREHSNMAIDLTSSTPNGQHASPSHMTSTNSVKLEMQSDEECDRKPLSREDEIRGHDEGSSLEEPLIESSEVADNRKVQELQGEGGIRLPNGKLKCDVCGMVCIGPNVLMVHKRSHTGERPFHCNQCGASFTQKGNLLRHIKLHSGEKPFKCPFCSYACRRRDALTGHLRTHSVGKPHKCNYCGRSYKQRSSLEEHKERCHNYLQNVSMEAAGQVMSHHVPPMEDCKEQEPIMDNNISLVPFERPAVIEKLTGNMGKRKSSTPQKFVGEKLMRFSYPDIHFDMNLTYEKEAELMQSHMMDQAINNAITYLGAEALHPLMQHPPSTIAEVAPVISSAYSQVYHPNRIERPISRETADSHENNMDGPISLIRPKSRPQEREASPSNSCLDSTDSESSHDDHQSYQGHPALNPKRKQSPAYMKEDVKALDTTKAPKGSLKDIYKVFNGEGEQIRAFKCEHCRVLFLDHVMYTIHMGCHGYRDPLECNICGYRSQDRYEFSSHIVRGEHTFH
Sequence (Q96SW2 whole entry): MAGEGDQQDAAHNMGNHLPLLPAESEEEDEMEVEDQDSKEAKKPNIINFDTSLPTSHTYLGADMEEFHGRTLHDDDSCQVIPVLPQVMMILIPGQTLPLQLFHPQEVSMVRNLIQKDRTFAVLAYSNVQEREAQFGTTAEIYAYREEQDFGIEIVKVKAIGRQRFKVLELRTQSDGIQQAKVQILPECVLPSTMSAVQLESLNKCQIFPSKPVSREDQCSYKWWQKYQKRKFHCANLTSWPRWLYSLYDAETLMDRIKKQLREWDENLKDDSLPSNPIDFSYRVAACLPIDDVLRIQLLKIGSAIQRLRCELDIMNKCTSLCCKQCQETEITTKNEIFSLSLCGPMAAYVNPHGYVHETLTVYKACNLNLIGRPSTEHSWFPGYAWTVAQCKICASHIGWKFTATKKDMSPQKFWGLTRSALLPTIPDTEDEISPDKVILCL
Sequence (Q16531 whole entry partner): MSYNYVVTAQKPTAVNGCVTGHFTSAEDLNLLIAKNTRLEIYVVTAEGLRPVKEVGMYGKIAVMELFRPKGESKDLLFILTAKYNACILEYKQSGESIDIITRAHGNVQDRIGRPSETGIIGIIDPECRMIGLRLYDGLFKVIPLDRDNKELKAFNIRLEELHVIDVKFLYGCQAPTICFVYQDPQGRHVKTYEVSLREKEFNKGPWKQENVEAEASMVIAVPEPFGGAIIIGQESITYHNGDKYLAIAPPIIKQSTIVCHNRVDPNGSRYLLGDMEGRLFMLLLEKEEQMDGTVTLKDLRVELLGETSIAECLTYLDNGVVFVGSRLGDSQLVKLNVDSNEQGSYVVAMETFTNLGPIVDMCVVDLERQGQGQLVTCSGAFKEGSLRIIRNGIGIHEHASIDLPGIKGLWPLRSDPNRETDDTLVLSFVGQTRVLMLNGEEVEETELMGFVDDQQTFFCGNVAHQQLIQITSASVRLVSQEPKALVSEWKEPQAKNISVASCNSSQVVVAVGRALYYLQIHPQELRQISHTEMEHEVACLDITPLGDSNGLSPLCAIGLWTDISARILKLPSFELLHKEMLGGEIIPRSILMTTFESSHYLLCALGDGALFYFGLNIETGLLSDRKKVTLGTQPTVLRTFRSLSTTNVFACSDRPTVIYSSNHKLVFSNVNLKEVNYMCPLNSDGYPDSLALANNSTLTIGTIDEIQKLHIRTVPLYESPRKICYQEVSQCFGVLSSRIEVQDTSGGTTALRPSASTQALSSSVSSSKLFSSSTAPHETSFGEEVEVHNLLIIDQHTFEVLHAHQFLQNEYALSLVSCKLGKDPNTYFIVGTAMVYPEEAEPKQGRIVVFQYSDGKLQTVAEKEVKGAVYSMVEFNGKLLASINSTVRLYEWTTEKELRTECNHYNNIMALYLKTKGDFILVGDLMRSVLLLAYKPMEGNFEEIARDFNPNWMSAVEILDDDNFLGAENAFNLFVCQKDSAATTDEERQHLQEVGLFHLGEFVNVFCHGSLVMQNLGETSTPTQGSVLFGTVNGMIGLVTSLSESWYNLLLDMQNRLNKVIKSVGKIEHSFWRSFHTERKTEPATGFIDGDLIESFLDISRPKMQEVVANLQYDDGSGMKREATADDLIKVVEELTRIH
test: Prolabel quantification of IKZF2 protein levels in 293GT cells
Type: cell-based
protocol.conditions: 10 μM, 24 h, 293GT cells
readout: IKZF2 % protein reduction at 10 μM, 24 h (%)

Study these solved cases before continuing.
| compound | system.tested | result.units | IKZF2 % protein reduction at 10 μM, 24 h |
| --- | --- | --- | --- |
| CCn1cc(C(C)N2CCC(c3ccc4c(c3)CN(C3CCC(=O)NC3=O)C4=O)CC2)cn1 (centres unmarked) | IKZF2 (Helios) (Homo sapiens, UniProt Q96SW2+Q9UKS7) | % | 70 |
| CCC(c1cnn(CC)c1)N1CCC(c2ccc3c(c2)CN(C2CCC(=O)NC2=O)C3=O)CC1 (centres unmarked) | IKZF2 (Helios) (Homo sapiens, UniProt Q96SW2+Q9UKS7) | % | 62 |
| O=C1CCC(N2Cc3cc(C4CCN(Cc5cnccn5)CC4)ccc3C2=O)C(=O)N1 (centres unmarked) | IKZF2 (Helios) (Homo sapiens, UniProt Q96SW2+Q9UKS7) | % | 55 |
| O=C1CCC(N2Cc3cc(C4CCN(C5CCc6ncccc65)CC4)ccc3C2=O)C(=O)N1 (centres unmarked) | IKZF2 (Helios) (Homo sapiens, UniProt Q96SW2+Q9UKS7) | % | 80 |

[a] CCOc1ccc(CN2CCC(c3ccc4c(c3)CN(C3CCC(=O)NC3=O)C4=O)CC2)nc1 (centres unmarked)
[b] O=C1CCC(N2Cc3cc(C4CCN(Cc5cccnn5)CC4)ccc3C2=O)C(=O)N1 (centres unmarked)
[ask] Input pair: a , b . Output: entry with lower IKZF2 % protein reduction at 10 μM, 24 h. State the label of the item chosen.
[reply] b

---

system.tested: IKZF2 (Helios) (Homo sapiens, UniProt Q96SW2+Q9UKS7)
test: Prolabel quantification of IKZF2 protein levels in 293GT cells
Type: cell-based
protocol.conditions: 10 μM, 24 h, 293GT cells
readout: IKZF2 % protein reduction at 10 μM, 24 h (%)

[I] O=C1CCC(N2Cc3cc(C4CCN(Cc5ccncn5)CC4)ccc3C2=O)C(=O)N1 (centres unmarked)
[II] O=C1CCC(N2Cc3cc(C4CCN(CC5CCC(CF)CC5)CC4)ccc3C2=O)C(=O)N1 (centres unmarked)
[ask] Exercise: compare I and II ; which one has the greater IKZF2 % protein reduction at 10 μM, 24 h? State the label of the item chosen.
[reply] II
(II: 75%, I: 50%)

[P] CCC(c1cnccn1)N1CCC(c2ccc3c(c2)CN(C2CCC(=O)NC2=O)C3=O)CC1 (centres unmarked)
[Q] O=C1CCC(N2Cc3cc(C4CCN(Cc5ccnnc5)CC4)ccc3C2=O)C(=O)N1 (centres unmarked)
[ask] Exercise: compare P and Q ; which one has the greater IKZF2 % protein reduction at 10 μM, 24 h? State the label of the item chosen.
[reply] P

[1] COc1ccc(CN2CCC(c3ccc4c(c3)CN(C3CCC(=O)NC3=O)C4=O)CC2)nc1 (centres unmarked)
[2] COc1ccc(CN2CCC(c3ccc4c(c3)CN(C3CCC(=O)NC3=O)C4=O)CC2)cn1 (centres unmarked)
[ask] Exercise: compare 1 and 2 ; which one has the greater IKZF2 % protein reduction at 10 μM, 24 h? State the label of the item chosen.
[reply] 2
